- Assayed target: DLL4 (human, UniProt Q9NR61)
- Sequence (Q9NR61 27-524): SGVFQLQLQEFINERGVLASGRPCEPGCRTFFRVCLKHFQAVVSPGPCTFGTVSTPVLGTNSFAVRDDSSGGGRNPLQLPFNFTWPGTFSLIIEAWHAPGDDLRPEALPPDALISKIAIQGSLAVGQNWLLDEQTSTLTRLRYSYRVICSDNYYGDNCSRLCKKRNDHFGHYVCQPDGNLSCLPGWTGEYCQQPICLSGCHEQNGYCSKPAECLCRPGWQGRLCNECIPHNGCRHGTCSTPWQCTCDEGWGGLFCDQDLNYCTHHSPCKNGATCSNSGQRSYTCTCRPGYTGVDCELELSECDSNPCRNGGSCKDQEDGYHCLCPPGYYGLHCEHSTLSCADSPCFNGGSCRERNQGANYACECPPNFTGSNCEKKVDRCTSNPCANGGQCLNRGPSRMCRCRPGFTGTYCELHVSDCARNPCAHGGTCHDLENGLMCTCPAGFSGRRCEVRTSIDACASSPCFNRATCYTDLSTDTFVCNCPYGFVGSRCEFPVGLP
- Protocol summary: ELISA
Measured attribute: EC50 (nM)
Give the value in nM but do not write nM after it.

| Binder | Test result |
| --- | --- |
| DVD495 DLL4 arm (antibody, V domains shown, DVD-Ig outer) VH: EVQLQQSGPELVKPGASVKMSCKASGYTFTSYVINWVKQKPGQGLEWIGLINPYNDGTKYNEKFKVKATLTSDKSSSTAYMELSSLTSEDSAVYYCASYYYGSRYYFDYWGQGTTLTVSS VL: DIQMTQSSSYLSVSLGGRVTITCKASDHINNWLAWYQQKPGNAPRLLISGATSLETGVPSRFSGSGSGKDYTLSITSLQTEDVATYYCQQYWSIPLTFGAGTKLELKR | 0.33 |
| DVD475 DLL4 arm (antibody, DVD-Ig outer) chain 1: EVQLVESGGGLVQPGGSLRLSCAASGFTFTDNWISWVRQAPGKGLEWVGYISPNSGFTYYADSVKGRFTISADTSKNTAYLQMNSLRAEDTAVYYCARDNFGGYFDYWGQGTLVTVSS chain 2: DIQMTQSPSSLSASVGDRVTITCRASQDVSTAVAWYQQKPGKAPKLLIYSASFLYSGVPSRFSGSGSGTDFTLTISSLQPEDFATTYYCQQSYTGTVTFGQGTKVEIKR | 0.23 |
| DVD493 DLL4 arm (antibody, V domains shown, DVD-Ig outer) VH: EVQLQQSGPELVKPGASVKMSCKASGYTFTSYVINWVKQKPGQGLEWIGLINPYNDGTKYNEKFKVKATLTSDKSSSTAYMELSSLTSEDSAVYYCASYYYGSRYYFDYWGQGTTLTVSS VL: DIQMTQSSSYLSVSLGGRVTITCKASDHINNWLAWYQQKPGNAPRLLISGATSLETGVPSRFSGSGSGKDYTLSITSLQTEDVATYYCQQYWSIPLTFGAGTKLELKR | 0.06 |

(Q) Fill blank: measured EC50 of the binder DVD503 DLL4 arm (antibody, V domains shown, DVD-Ig outer) VH: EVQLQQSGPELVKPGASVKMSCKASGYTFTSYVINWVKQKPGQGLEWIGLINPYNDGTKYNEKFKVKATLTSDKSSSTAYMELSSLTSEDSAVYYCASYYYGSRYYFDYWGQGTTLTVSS VL: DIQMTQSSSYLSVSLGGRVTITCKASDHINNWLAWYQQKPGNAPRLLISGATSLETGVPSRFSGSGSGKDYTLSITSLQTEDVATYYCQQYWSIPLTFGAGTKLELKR is ____.
(A) 0.33
